Recorded below: IC50, system Procathepsin L (Homo sapiens, UniProt P07711).
Property Name: IC50 (nM)

>>> number("CC(C)(C)OC(=O)N[C@@H](Cc1c[nH]c2ccccc12)C(=O)NNC(=O)SCC(=O)N1CCCc2ccccc21")
41
>>> number("CC(C)(C)OC(=O)N[C@@H](Cc1c[nH]c2ccccc12)C(=O)NNC(=O)OCC(=O)N1CCCc2ccccc21")
7
>>> number("CCc1ccccc1NC(=O)CSC(=O)NNC(=O)CCc1c[nH]c2ccccc12")
21800
